Molecular target: human ether-à-go-go-related gene (hERG) potassium channel (human);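 further: peak tail current of the secondary pulse compared with the same well before compound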
Sequence (Q12809 whole entry, looked up): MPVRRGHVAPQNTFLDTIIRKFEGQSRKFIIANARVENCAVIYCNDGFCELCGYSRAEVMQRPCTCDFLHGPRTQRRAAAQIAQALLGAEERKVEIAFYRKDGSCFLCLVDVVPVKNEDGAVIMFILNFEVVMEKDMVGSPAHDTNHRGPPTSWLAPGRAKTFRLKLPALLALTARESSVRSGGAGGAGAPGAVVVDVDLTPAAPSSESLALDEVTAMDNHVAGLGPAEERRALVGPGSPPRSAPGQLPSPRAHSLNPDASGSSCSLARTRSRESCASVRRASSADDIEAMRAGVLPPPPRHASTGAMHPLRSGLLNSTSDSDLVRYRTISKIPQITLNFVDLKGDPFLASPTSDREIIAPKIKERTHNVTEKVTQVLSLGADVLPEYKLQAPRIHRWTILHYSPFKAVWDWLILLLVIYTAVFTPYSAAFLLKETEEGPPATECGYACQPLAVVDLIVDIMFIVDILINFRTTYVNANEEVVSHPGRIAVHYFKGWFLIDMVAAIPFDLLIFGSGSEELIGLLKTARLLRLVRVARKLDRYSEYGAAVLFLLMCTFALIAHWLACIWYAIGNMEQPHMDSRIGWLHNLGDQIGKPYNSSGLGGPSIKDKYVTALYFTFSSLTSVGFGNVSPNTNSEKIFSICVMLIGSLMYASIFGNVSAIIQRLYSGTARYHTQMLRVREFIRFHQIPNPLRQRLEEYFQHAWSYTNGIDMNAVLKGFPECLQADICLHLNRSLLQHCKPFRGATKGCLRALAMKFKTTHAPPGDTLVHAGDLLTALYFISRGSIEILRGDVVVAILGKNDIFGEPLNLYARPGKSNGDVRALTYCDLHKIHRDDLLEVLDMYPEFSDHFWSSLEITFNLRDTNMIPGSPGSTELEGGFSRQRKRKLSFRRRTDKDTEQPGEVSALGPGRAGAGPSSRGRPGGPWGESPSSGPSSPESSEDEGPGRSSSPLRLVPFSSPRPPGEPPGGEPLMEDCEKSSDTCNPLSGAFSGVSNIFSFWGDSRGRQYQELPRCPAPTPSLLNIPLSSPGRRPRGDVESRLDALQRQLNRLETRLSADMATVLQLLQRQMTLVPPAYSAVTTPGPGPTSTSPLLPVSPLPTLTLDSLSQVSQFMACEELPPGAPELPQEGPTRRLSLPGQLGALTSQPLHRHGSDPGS
Experiment: primary screen, population patch clamp on CHO cells stably expressing hERG; higher = less effect of the substance
Method: Briefly, Chinese hamster ovary (CHO) cells stably expressing the hERG channel were dislodged from tissue culture flasks and dispensed into PPC plates. […] During the recording, background leak currents were estimated by a 100 ms step to -80 mV from an initial holding potential of -70 mV and subtracted from the subsequent current measurement. The campaign was conducted in two phases using slight differences in recording protocol. […]
Screen size: about 310,000 compounds; about 14,000 (4.5%) showed an effect of 50% or more. Effects have a minus sign here. Shown is part of a subset that was picked to be rich in strong results.
ENDPOINT: hERG current change (%, negative = inhibition) at 10uM (%)
I only need the number, in %, no unit after it.

Q. Could you tell me which hERG current change (%, negative = inhibition) at 10uM is on file for CCOC(=O)Cn1c(=N)n(CCOc2ccc3ccccc3c2)c2ccccc21.Cl ?
A. -75.3

Q. Consider the compound shown here: CC(=O)N1CCc2cc(S(=O)(=O)CCC(=O)NCc3ccc(F)cc3)ccc21 What is its recorded hERG current change (%, negative = inhibition) at 10uM?
A. -13.8

Q. So what does the record say about hERG current change (%, negative = inhibition) at 10uM for Cc1ccc(O)c(C(=O)c2cnc3onc(-c4ccc(F)cc4)c3c2)c1 ?
A. 4.58

Q. # query: hERG current change (%, negative = inhibition) at 10uM of entry COc1ccccc1NC(=O)Cn1cnc2sc(C(=O)Nc3cc(OC)c(OC)c(OC)c3)c(C)c2c1=O
A. 27.8

Q. Report hERG current change (%, negative = inhibition) at 10uM for O=c1c2ccccc2oc2ccc(-c3ccc4[nH]ccc4c3)cc12 please.
A. -2.53

Q. Reported hERG current change (%, negative = inhibition) at 10uM, compound Br.CCOC(=O)Cn1c(=N)n(Cc2ccccc2)c2ccccc21 : ____
A. -34.6

Q. For CC(=O)c1ccc(N2CCN(C(=O)CCC(=O)Nc3ccc4nc(N5CCN(C)CC5)cc(C)c4c3)CC2)cc1 , what is its reported hERG current change (%, negative = inhibition) at 10uM?
A. 20.3

Q. // returns reported hERG current change (%, negative = inhibition) at 10uM for input Br.CCCn1c(=N)n(CC(=O)OCC)c2ccccc21
A. -4.66

Q. Name the recorded hERG current change (%, negative = inhibition) at 10uM for COc1ccc(N=C2CCCN2CC(N)=O)cc1.Cl .
A. -0.486
